Cited source: patent US5843937A

# Test system: human liver cancer HepG2 cells
# protocol-summary: Cytotoxicity of Mab-YW-242 conjugates against liver cancer HepG2 cells (3H-thymidine incorporation)
# Format: cell-based
# condition-description: 1 h drug incubation, washed, overnight with 3H-thymidine, read-out: IC50 Values of the Mab-drug Conjugate
# Procedure: Using such potent molecules for monoclonal antibody-drug conjugate has advantages over using low potency agents. […] IC50 values for cell proliferation were determined by incorporation of ^3 H-thymidine. The conjugates were tested in vitro against human liver cancer HepG2 cells. IC50 values for cell proliferation were determined by incorporation of ^3 H-thymidine. […] Radioactivity was counted and IC50 values were determined.
observable: IC50
Please answer in the form of a number followed by its unit of measurement.

molecule: Nc1ccc2[nH]c(C(=O)N3CC(CCl)c4c3cc(O)c3ccccc43)cc2c1 (centres unmarked)
IC50: 0.2 µM

Okay, next one:
Q: Write IC50 of COc1cccc2c1C(=O)c1c(O)c3c(c(O)c1C2=O)C[C@@](O)(C(=O)CO)C[C@@H]3O[C@H]1C[C@H](N)[C@H](O)[C@H](C)O1 [Doxorubicin, reference compound] ; system used: human liver cancer HepG2 cells
A: 6 µM
